tested on: field corn (Zea mays L., var. Dekalb 535, CORN); test: Post-emerge greenhouse test, crop damage rating; type: in vivo; settings: rate 500 g ai/ha, 14 days after application, scale 0-100
Reported property: crop damage rating CORN

CS(=O)(=O)c1cccnc1Oc1cc(-n2c(=O)n3n(c2=S)CCCC3)c(F)cc1Cl [Compound 8-21]	0
N#Cc1ccc(Oc2cc(-n3c(=O)n4n(c3=S)CCCC4)c(F)cc2Cl)nc1 [Compound 8-22]	15
O=c1n(-c2cc(Oc3ccccn3)c(Cl)cc2F)c(=S)n2n1CCCC2 [Compound 8-17]	10
Cc1nsc(Oc2cc(-n3c(=O)n4n(c3=S)CCCC4)c(F)cc2Cl)c1[N+](=O)[O-] [Compound 8-35]	10
O=c1n(-c2cc(Oc3nccc(Cl)n3)c(Cl)cc2F)c(=S)n2n1CCCC2 [Compound 8-31]	10
O=c1n(-c2cc(Oc3ncccc3[N+](=O)[O-])c(Cl)cc2F)c(=S)n2n1CCCC2 [Compound 8-19]	30
O=c1n(-c2cc(Oc3nccc(C(F)(F)F)n3)c(Cl)cc2F)c(=S)n2n1CCCC2 [Compound 8-30]	40
O=c1n(-c2cc(Oc3ccc([N+](=O)[O-])cn3)c(Cl)cc2F)c(=S)n2n1CCCC2 [Compound 8-23]	5
